target or system: Ba/F3 cells with EGFR exon 20 ASV Ins V769_D770 (Homo sapiens, UniProt P00533, INS769ASV)
Sequence (P00533 with tags, fused parts or gaps INS769ASV): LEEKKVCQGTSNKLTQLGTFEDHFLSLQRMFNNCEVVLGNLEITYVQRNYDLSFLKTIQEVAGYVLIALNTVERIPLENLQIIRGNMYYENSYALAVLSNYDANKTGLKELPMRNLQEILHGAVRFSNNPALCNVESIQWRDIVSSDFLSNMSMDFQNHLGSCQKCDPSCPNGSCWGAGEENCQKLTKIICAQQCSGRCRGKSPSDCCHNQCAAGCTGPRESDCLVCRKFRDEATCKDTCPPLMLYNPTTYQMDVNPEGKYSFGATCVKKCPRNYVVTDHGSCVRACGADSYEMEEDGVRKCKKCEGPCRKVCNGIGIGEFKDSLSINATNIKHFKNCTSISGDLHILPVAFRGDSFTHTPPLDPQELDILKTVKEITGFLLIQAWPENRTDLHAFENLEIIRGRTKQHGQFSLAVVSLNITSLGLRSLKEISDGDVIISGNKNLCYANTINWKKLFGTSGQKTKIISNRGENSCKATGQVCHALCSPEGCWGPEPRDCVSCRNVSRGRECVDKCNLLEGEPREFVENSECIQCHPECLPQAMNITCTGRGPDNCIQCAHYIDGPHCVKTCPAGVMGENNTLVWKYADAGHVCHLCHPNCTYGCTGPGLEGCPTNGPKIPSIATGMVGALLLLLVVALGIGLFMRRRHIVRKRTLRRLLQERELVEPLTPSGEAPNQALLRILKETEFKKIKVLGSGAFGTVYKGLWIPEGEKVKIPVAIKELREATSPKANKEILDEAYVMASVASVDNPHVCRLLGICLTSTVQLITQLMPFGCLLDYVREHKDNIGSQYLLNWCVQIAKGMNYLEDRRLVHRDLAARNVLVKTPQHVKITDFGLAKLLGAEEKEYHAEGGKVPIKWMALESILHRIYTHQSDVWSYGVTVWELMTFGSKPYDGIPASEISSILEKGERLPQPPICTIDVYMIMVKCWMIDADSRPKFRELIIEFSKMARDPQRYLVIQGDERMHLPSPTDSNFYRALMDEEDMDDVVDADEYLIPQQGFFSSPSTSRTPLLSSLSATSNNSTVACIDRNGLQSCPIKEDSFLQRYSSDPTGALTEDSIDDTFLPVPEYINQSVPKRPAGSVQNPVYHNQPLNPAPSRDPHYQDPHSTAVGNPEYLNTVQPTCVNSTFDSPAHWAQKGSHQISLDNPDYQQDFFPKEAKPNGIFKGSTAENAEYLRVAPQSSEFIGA
assay comment: EGFR activity: Ba/F3 cell viability (CellTiter-Glo, 72 h), EGFR exon 20 ASV insertion
study conditions: EGFR exon 20 ASV Ins V769_D770, cell viability, read-out: BaF3 ASV IC50
quantity kind: IC50

Inquiry: Using Ba/F3 cells with EGFR exon 20 ASV Ins V769_D770 (Homo sapiens, UniProt P00533, INS769ASV) as the test system, report measured IC50 of C=CC(=O)N1[C@H](C)CC[C@@H]1C#Cc1cnccc1-c1[nH]c2c(c1Nc1cccc(F)c1OC)C(=O)NCC2 .
Reply text: < 100 nM

Inquiry: Report the value of IC50 obtained on Ba/F3 cells with EGFR exon 20 ASV Ins V769_D770 (Homo sapiens, UniProt P00533, INS769ASV) for C=CC(=O)N1[C@H]2CC[C@H](C2)[C@@H]1C#Cc1cnccc1-c1[nH]c2c(c1Nc1cccc(F)c1OC)C(=O)NCC2 .
Reply text: < 100 nM

Inquiry: Give reported IC50 for C=C(F)C(=O)NC(C)(C)C#Cc1cnccc1-c1[nH]c2c(c1Nc1cccc(Cl)c1OC)C(=O)NCC2 (Ba/F3 cells with EGFR exon 20 ASV Ins V769_D770 (Homo sapiens, UniProt P00533, INS769ASV))
Reply text: < 100 nM
